B1: SAT2 (parent)
chain: LTEAEGWHFFCFQGEATRKLAGK

- Variants of: B1
- experimental_protocol: protein stability index of a GFP-peptide fusion (GPS, HEK-293T) (PSI 1-6); higher = more stable;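 also: lentivirally expressed fusions sorted by FACS into six bins by GFP to DsRed ratio, PSI derived from sequencing read proportions per bin multiplied by bin number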
- test_settings: c terminus: native
Binary classification by protein stability index, with 2 as an inclusive lower bound for class 1; all other cases are class 0.

INSERT INTO measurements (sequence_chain, class_assignment) VALUES
  ('LTEAEDWHFFCFQGEATRKLAGK [G6D]', 'class 1'),
  ('LTEAEGWHFFCFQGLATRKLAGK [E15L]', 'class 1'),
  ('LTEAEGWHFFCDQGEATRKLAGK [F12D]', 'class 1'),
  ('LTEAEGWHFFCFQGEITRKLAGK [A16I]', 'class 0'),
  ('LTEAEGWHFFCFQGEATRKLAFK [G22F]', 'class 0'),
  ('LEEAEGWHFFCFQGEATRKLAGK [T2E]', 'class 1'),
  ('LTEAEGWHFFCFQGFATRKLAGK [E15F]', 'class 0'),
  ('LTEAEGWPFFCFQGEATRKLAGK [H8P]', 'class 1');

Reported protein stability index at or above 2? GTEAEGWHFFCFQGEATRKLAGK [L1G]
class 1

Reported protein stability index at or above 2? LTEAEGWHFFCFEGEATRKLAGK [Q13E]
class 1

Reported protein stability index at or above 2? LTEAEGWHFFCFQGEGTRKLAGK [A16G]
class 1
